# System: SW-620
# protocol summary: NCI tumour cell line growth inhibition, 48 h
Calls of active or inactive are those of the source. No stated cut-off is given here; in the data, active = GI50 up to about 1.1 µM and inactive = higher.
Kindly state GI50 for each of the entries shown.

I would be grateful if you could provide GI50 for each of the following entries.
1. CC(=O)CCCCO
2. CCCSc1ccc2[nH]c(N3C(=O)/C(=C/c4ccccc4)N=C3c3ccccc3)cc2c1

Response line:
1. > 100 µM (inactive)
2. 18.7 µM (inactive)

Would you mind giving GI50 for every molecule in the list below?
1. CC1=C(O)C(=O)C2C(=O)C1C(C)C2c1ccc(C)cc1 (stereo not given)
2. COc1ccc(/C=C/C(=O)Oc2cc(O)cc(O)c2)cc1
3. Cc1ccc(S(=O)(=O)OCCC2CN(C(=O)OCc3ccccc3)C(C)(C)O2)cc1 (stereo not given)
4. CO[C@@]12C[C@@H](CNC(=O)c3cc(Br)c[nH]3)O[C@@H]1NC(=O)N2

Response line:
1: > 100 µM (inactive); 2: 41.1 µM (inactive); 3: 14.3 µM (inactive); 4: > 100 µM (inactive)

---

# System: MCF7
# protocol summary: NCI tumour cell line growth inhibition, 48 h
Calls of active or inactive are those of the source. No stated cut-off is given here; in the data, active = GI50 up to about 1.1 µM and inactive = higher.
Hi! Could you answer with just one of these? active, inactive

Worked examples, 5 compounds total:
1. CN1c2ccccc2C(=O)NC12CCN(Cc1ccccc1)CC2 : inactive
2. OC(CC1CCCCN1)c1ccc2c(c1)oc1ccccc12 (stereo not given) : inactive
3. Cc1cccc(/N=N/c2c(C)nn(C(=O)CC(=O)Nc3ccccc3)c2C)c1 : inactive
4. COc1cc2c(cc1OC)C(Cl)C(c1ccc(Br)cc1)=C2Cl (stereo not given) : inactive
5. O=c1[nH]nc(Cc2ccccc2)n1CCCl : inactive

Prompt line: Record request — test call for CCC1C(C#N)=C(N)OC2=C1C(=O)CC(C)(C)C2 (stereo not given)
Response line: inactive

Prompt line: Just curious, what result did CC(=O)OC[C@H]1O[C@@H](O[C@H]2[C@H](OC(C)=O)C=CO[C@@H]2COC(C)=O)C(OC(C)=O)[C@H]2OC(C)(C)O[C@H]21 (stereo not given in full) get here?
Response line: inactive

Prompt line: Please let me know the test result on file for NC(=O)NC(=O)c1cccc(NC(=O)CI)c1 .
Response line: active

Prompt line: What did the test return for OC(c1cc2ccccc2[nH]1)C1(c2cccnc2)SCCCS1 (stereo not given) ?
Response line: inactive

Prompt line: What did this assay record as the result for CCCSc1ccc2[nH]c(N3C(=O)/C(=C/c4ccccc4)N=C3c3ccccc3)cc2c1 ?
Response line: inactive

---

# Tested on: PC-3
# protocol summary: NCI tumour cell line growth inhibition, 48 h
Activity calls are given as the source filed them. Rule as the data show it: active = GI50 up to about 1.1 µM and inactive = higher.
Hi there, use one of these labels in your reply, thanks! active, inactive

Solved cases (5 shown):
1. c1ccc2sc(SCCSc3nc4ccccc4s3)nc2c1 : inactive
2. NC(=O)NC(=O)c1cccc(NC(=O)CI)c1 : active
3. Cc1cc(Cl)cc2c1NC(=O)/C2=N\Nc1ccccc1[N+](=O)[O-] : inactive
4. CSc1nc(C#N)c(N)n1C : inactive
5. COc1cc(Cn2c(=S)ss/c2=N\C(=S)N(C)C)cc(OC)c1OC : inactive

# evaluate next
Prompt line: Could you check what this test reported for CC(N/N=C(\S)N1CCCCCC1)c1cccnn1 (stereo unspecified) ?
Response line: active

---

# Tested on: CCRF-CEM
# protocol summary: NCI tumour cell line growth inhibition, 48 h
Active and inactive are the calls of the source. Rule as the data show it: active = GI50 up to about 1.1 µM and inactive = higher.
Mark one answer only. Choices: active, inactive

1) Nc1nc(SCc2ccc([N+](=O)[O-])cc2)nc2c1ncn2C1OC(COP(=O)(O)O)C(O)C1O (stereo not given) : inactive
2) O=C(CCCCCCCCC(=O)N1C(=O)CC(=O)N(c2ccccc2)C1=S)N1C(=O)CC(=O)N(c2ccccc2)C1=S : inactive
3) C/C(=C/CC[C@](C)(OC1OC(CO)C(O)C(O)C1OC1OC(C)C(O)C(O)C1O)[C@H]1CC[C@]2(C)[C@@H]1CC[C@@H]1[C@@]3(C)CC[C@H](O)C(C)(C)[C@@H]3C[C@H](O)[C@]12C)CO (stereo not given in full) : inactive
4) O=c1[nH]c(Br)nc2c(N3CCCCC3)c[nH]c12 : inactive
5) O=[N+]([O-])/C(C(Cl)=C(Cl)Cl)=C(\Nc1cccc2cccnc12)SCc1ccccc1 : inactive

Here's the next entry for you.
Prompt line: Per the records of this test, what outcome belongs to N=C(N)NNC(=O)CCCCCCCC(=O)NNC(=N)N ?
Response line: inactive

---

# System: HL-60
# protocol summary: NCI tumour cell line growth inhibition, 48 h
Activity calls are given as the source filed them. Rule as the data show it: active = GI50 up to about 1.1 µM and inactive = higher.
Pick one and only one: active, inactive

Solved entries:
1. COc1ccc([N+](=O)[O-])c2c(NCCCN(C)C)c(C)c(C)nc12 : inactive
2. COC(O)C(=O)c1c2c(cc3c1CCC3)CCC2 (stereo not given) : inactive
3. NCCO/C=C/C(N)C(=O)O (stereo not given) [AMINOETHOXYVINYLGLYCINE] : inactive

Prompt line: Query: recorded result category for O=C(c1ccc(Cl)c(Cl)c1)N(Cc1cccnc1)C(=S)N(Cc1cccnc1)C(=O)c1ccc(Cl)c(Cl)c1 in this test
Response line: inactive

Prompt line: Dear all, I need the recorded test outcome for O=c1[nH]c2cc(-c3ccccc3)nc-2nn1-c1c(Cl)cc(Cl)cc1Cl , thank you.
Response line: inactive

Prompt line: Could you kindly confirm the outcome this assay logged for O=C1NC(N2CCOCC2)=N/C1=C\c1ccc(O)cc1 ?
Response line: inactive

---

# System: SN12C
# protocol summary: NCI tumour cell line growth inhibition, 48 h
Active and inactive are the calls of the source. Rule as the data show it: active = GI50 up to about 1.1 µM and inactive = higher.
Allowed answers: true (active), false (inactive)

# count of solved cases: 5
1) OC(CC1CCCCN1)c1ccc2c(c1)oc1ccccc12 (configuration not stated) : false
2) CN(C)c1ccc(C(C=C2c3ccccc3Sc3ccccc32)=C(C#N)C#N)cc1 : false
3) CNCCCNC(=S)Cn1cc(C)c(=O)[nH]c1=O : false
4) COc1ccccc1C1c2cc3c(cc2OC(N2CCOCC2)C1C)OCO3 (configuration not stated) : false
5) CN(C(=O)C12C3(C(=O)O)C4C5(C(=O)O)C3C1(C(=O)O)C5C42C(=O)O)C(C)(C)C (configuration not stated) : false

Prompt line: I'd appreciate the recorded outcome for CCCN(CCC)C(=O)c1c(N2CCN(C)CC2)c2cccnc2n2c(C)cnc12 from this test.
Response line: false

Prompt line: // return assay outcome for N#C/C(=C\Nc1ccccn1)C(=O)C1CC1
Response line: false

Prompt line: Called result for COc1cc(/C=C\c2ccc(Br)cc2)cc(OC)c1OC
Response line: true

Prompt line: Given CCCc1c2c([nH]c(=O)c1C)C(=O)c1[nH]c(=O)c(C)c(CCC)c1C2=O , state the outcome it received in this test.
Response line: false

Prompt line: What classification did N#Cc1c2c(c(Nc3ccc(F)cc3)n3c1nc1ccccc13)CCC2 end up with in this test?
Response line: false

Prompt line: What did this assay record as the result for C=C=C(C(=O)OC)[S+]([O-])c1ccccc1[N+](=O)[O-] (configuration not stated) ?
Response line: false

Prompt line: Field: outcome | Entry: Oc1cc2cc(-c3ccccc3)[nH]c2c2ccccc12
Response line: false

Prompt line: What classification did CC(=O)OCC1OC(SC2=N/C(=C\c3ccc(Br)s3)C(=O)N2c2ccccc2)C(OC(C)=O)C(OC(C)=O)C1OC(C)=O (configuration not stated) end up with in this test?
Response line: false

Prompt line: Which outcome was assigned to Nc1nc(-c2cccs2)cs1 in this test?
Response line: false

Prompt line: Tell me the assay call for CC1=C[C@H]2c3c([nH]c4ccccc34)C(c3c[nH]c4ccccc34)[C@H]2CC1 (some centres not stated) please.
Response line: false

Prompt line: Assay outcome for O=c1[nH]nc(Cc2ccccc2)n1/N=C/c1ccc(/C=N/n2c(Cc3ccccc3)n[nH]c2=O)cc1 : what was it?
Response line: false

---

# Test system: SN12C
# protocol summary: NCI tumour cell line growth inhibition, 48 h
The source made the active and inactive calls. Cut-off read from the data, not from the text of the source: active = GI50 up to about 1.1 µM and inactive = higher.
value kind: GI50

# count of solved cases: 5
1. CC1OC(OC2C(O[C@H]3CC[C@@]4(C)C(=CC[C@H]5[C@@H]6C[C@@H]7O[C@]8(CC[C@@H](C)CO8)[C@@H](C)[C@@H]7[C@@]6(C)CC[C@@H]54)C3)OC(CO)C(O)C2OC2OC(CO)C(O)C(O)C2O)C(O)C(O)C1O (some centres undefined) : 8.75 µM (inactive)
2. COc1ccc(NC(C)=O)c(C(O)CCNC(C)=O)c1 (centres undefined) : > 100 µM (inactive)
3. O=C1CC(c2ccco2)C2(C(=O)NC(=O)NC2=O)C(c2ccco2)C1 (centres undefined) : > 75 µM (inactive)
4. O=C1/C(=C/c2ccc(O)c(O)c2)CC/C1=C\c1ccc(O)c(O)c1 : 7.29 µM (inactive)
5. Nn1c(CNc2ccc(-c3nnc(Nc4ccc(Cl)cc4)n3N)cc2)nnc1Nc1ccc(Cl)cc1 : > 100 µM (inactive)

Each of the following entries comes with a recorded value; kindly state GI50 for each.
1. O=C1C=CC(=O)c2nc3c(cc21)CCC3
2. O=c1c2cc(Br)ccc2n(C2OC(CO)C(O)C(O)C2O)c(=S)n1-c1ccccc1 (centres undefined)
3. COC(=O)N1CCc2c(nc(N(C)CCO)[nH]c2=O)C1
4. CCOS(C)(=O)=O

Response line:
1. 19.1 µM (inactive)
2. > 100 µM (inactive)
3. > 100 µM (inactive)
4. > 100 µM (inactive)
